Property: IL-1β secretion, LPS treated monocytes, at 0.0001 µM; scope: individual binders
- measured on: T1, IL10Rα/IL2Rγ receptor (human) (UniProt Q13651)
- T1 sequence (looked up) 1: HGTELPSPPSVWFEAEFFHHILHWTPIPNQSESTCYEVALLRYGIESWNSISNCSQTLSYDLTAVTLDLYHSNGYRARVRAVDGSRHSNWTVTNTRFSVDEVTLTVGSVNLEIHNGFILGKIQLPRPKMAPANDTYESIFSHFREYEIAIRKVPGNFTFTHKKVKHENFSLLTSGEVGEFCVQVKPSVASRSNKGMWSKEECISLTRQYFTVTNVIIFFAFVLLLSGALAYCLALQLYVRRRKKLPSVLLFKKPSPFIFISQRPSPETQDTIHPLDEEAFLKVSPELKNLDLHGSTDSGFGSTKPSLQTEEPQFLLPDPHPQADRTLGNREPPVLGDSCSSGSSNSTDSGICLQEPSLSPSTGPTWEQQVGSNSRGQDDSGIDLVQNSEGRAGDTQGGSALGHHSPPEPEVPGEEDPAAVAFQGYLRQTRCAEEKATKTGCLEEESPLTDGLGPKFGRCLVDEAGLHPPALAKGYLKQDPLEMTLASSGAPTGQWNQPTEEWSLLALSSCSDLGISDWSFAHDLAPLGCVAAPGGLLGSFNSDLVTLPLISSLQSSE
- T1 sequence (looked up) 2: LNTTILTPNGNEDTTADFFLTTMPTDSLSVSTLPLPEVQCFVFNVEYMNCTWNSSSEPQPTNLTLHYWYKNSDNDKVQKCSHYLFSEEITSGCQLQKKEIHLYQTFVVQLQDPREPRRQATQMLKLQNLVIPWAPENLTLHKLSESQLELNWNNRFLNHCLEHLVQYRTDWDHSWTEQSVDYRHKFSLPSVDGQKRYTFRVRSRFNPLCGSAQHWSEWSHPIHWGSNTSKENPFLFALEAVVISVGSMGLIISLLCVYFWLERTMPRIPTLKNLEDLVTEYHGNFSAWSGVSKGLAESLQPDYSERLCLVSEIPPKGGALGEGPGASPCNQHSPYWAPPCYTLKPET
- test: cell-based or functional assay
Respond with the figure and its unit, in that order.

Ask: Quick one: IL-1β secretion, LPS treated monocytes, at 0.0001 µM for hIL10Ra_VHH14 - hIL2Rg_VHH19, linker GGGS, tag Fc (bispecific antibody, not shown: a dimerising Fc or GST) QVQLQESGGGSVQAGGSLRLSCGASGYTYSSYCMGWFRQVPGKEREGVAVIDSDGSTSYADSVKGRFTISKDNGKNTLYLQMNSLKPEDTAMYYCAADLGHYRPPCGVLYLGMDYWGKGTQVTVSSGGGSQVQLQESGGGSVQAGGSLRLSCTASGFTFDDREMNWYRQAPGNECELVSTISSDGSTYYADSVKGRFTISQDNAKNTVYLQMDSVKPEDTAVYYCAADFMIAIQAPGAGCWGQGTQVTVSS ?
Result: 6290 pg/mL

Ask: Quick one: IL-1β secretion, LPS treated monocytes, at 0.0001 µM for hIL10Ra_VHH14 - hIL2Rg_VHH19, linker …, tag his (bispecific antibody, not shown: small tags and cut ends) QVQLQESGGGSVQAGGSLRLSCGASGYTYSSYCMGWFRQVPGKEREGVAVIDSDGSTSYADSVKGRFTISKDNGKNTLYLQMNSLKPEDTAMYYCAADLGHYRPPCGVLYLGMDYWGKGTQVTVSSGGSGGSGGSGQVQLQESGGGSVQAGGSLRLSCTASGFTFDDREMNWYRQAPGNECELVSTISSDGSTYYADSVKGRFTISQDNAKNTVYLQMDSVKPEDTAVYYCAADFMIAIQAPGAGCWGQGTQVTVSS ?
Result: 5890 pg/mL

Ask: Quick one: IL-1β secretion, LPS treated monocytes, at 0.0001 µM for hIL10Ra_VHH14 - hIL2Rg_VHH19, linker GGSGGS, tag his (bispecific antibody, not shown: small tags and cut ends) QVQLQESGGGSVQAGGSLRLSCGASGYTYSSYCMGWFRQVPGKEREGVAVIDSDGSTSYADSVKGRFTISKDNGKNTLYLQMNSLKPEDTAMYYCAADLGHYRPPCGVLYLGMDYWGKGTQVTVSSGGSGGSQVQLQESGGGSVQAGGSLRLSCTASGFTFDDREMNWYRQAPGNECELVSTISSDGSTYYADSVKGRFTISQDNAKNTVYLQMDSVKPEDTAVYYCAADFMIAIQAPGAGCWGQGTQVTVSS ?
Result: 6290 pg/mL

Ask: Quick one: IL-1β secretion, LPS treated monocytes, at 0.0001 µM for hIL10Ra_VHH14 - hIL2Rg_VHH19, linker GGGS, tag his (bispecific antibody, not shown: small tags and cut ends) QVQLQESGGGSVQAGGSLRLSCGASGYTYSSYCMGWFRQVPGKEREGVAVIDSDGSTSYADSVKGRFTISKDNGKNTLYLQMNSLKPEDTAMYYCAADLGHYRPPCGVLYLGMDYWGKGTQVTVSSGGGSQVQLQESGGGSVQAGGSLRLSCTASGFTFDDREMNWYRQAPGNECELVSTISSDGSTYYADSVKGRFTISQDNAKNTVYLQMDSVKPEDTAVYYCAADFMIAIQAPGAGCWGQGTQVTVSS ?
Result: 6420 pg/mL
